Give measured self-cleavage for each item. Keep answers brief.
B1: Hairpin Ribozyme (parent)
chain: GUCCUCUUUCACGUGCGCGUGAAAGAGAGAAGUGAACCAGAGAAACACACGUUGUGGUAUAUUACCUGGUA

# Variants of: B1
# EXPERIMENTAL DETAILS: self-cleavage, relative activity (ratio to wild type); higher = more cleavage; co-transcriptional
Answers are plain numbers.

Would you mind giving self-cleavage for every variant in the list below?
1. C10A G54U
2. C4A C18G
3. U20G G42A
4. C10G C50U
5. U63A
6. C48A G51U

0.426
0.198
0.266
0.344
0.188
0.141

Data origin: the RNAGym collection of RNA variant scans (doi:10.7554/elife.80360)
